Data provenance: ChEMBL document CHEMBL1649084

MIC99 values by entry
tested on: Mycobacterium tuberculosis; assay: Antimycobacterial activity against Mycobacterium tuberculosis H37Rv NHN382 after 24 hrs by microplate Alamar Blue assay; assay type: functional
measure: MIC99 (µM)

[[record]]
given_smiles = "CCOC(=O)Nc1cc(NC(C)=O)c2[nH]c(-c3ccccc3)nc2c1"
target_or_system = "Mycobacterium tuberculosis"
recorded_value = 2.3

[[record]]
given_smiles = "CCCCOC(=O)Nc1cc2nc(C3CCCCC3)[nH]c2cc1N1CCCC1"
target_or_system = "Mycobacterium tuberculosis"
recorded_value = 1

[[record]]
given_smiles = "O=C(Nc1cc2nc(C3CCCCC3)[nH]c2cc1N1CCCC1)OCc1ccccc1"
target_or_system = "Mycobacterium tuberculosis"
recorded_value = 3.7

[[record]]
given_smiles = "C=CCCOC(=O)Nc1cc2nc(C3CCCCC3)[nH]c2cc1N(CC)CC"
target_or_system = "Mycobacterium tuberculosis"
recorded_value = 4.2


* * *

test system: Vero; assay: Cytotoxicity against african green monkey Vero cells after 3 days by Alamar Blue assay; assay type: cell-based; settings: chlorocebus sabaeus, 72 h
measure: Cytotoxic concentration

[[record]]
given_smiles = "CCN(CC)c1cc2[nH]c(C3CCCCC3)nc2cc1NC(=O)c1ccc(Cl)cc1"
target_or_system = "Vero"
recorded_value = "> 400 µM"

[[record]]
given_smiles = "O=C(Nc1cc2nc(C3CCCCC3)[nH]c2cc1N1CCCC1)OCc1ccccc1"
target_or_system = "Vero"
recorded_value = "> 200 µM"

[[record]]
given_smiles = "CCN(CC)c1cc2[nH]c(C3CCCCC3)nc2cc1NC(=O)OCc1ccccc1"
target_or_system = "Vero"
recorded_value = "> 400 µM"

[[record]]
given_smiles = "CCCCOC(=O)Nc1cc2nc(C3CCCCC3)[nH]c2cc1N(CC)CC"
target_or_system = "Vero"
recorded_value = "> 400 µM"

[[record]]
given_smiles = "C=CCCOC(=O)Nc1cc2nc(C3CCCCC3)[nH]c2cc1N(CC)CC"
target_or_system = "Vero"
recorded_value = "> 400 µM"

[[record]]
given_smiles = "CCN(CC)c1cc2[nH]c(C3CCCCC3)nc2cc1NC(=O)c1ccc(C)cc1"
target_or_system = "Vero"
recorded_value = "> 400 µM"

[[record]]
given_smiles = "CCN(CC)c1cc2[nH]c(C3CCCCC3)nc2cc1NC(=O)c1ccc(OC)cc1"
target_or_system = "Vero"
recorded_value = "> 400 µM"

[[record]]
given_smiles = "CCCCOC(=O)Nc1cc2nc(C3CCCCC3)[nH]c2cc1N1CCCC1"
target_or_system = "Vero"
recorded_value = "> 200 µM"

[[record]]
given_smiles = "CCN(CC)c1cc2[nH]c(C3CCCCC3)nc2cc1NC(=O)c1ccccc1"
target_or_system = "Vero"
recorded_value = "> 400 µM"

[[record]]
given_smiles = "CCOC(=O)Nc1cc(NC(C)=O)c2[nH]c(-c3ccccc3)nc2c1"
target_or_system = "Vero"
recorded_value = "> 200 µM"

[[record]]
given_smiles = "CCCOC(=O)Nc1cc2nc(C3CCCCC3)[nH]c2cc1N(CC)CC"
target_or_system = "Vero"
recorded_value = "> 400 µM"


* * *

system: Mycobacterium tuberculosis; test: Antimycobacterial activity against Mycobacterium tuberculosis H37Rv W210 after 24 hrs by microplate Alamar Blue assay; type: functional
measure: MIC99

[[record]]
given_smiles = "CCCCOC(=O)Nc1cc2nc(C3CCCCC3)[nH]c2cc1N1CCCC1"
measure = "MIC99"
recorded_value = "1 µM"

[[record]]
given_smiles = "C=CCCOC(=O)Nc1cc2nc(C3CCCCC3)[nH]c2cc1N(CC)CC"
measure = "MIC99"
recorded_value = "4.2 µM"

[[record]]
given_smiles = "CCCCOC(=O)Nc1cc2nc(C3CCCCC3)[nH]c2cc1N(CC)CC"
measure = "MIC99"
recorded_value = "4 µM"

[[record]]
given_smiles = "O=C(Nc1cc2nc(C3CCCCC3)[nH]c2cc1N1CCCC1)OCc1ccccc1"
measure = "MIC99"
recorded_value = "3.7 µM"

